- targetOfAssay: HMGA2 (Mus musculus)
- Construct: made in house
- Sequence (P52927 2-108 limits assumed): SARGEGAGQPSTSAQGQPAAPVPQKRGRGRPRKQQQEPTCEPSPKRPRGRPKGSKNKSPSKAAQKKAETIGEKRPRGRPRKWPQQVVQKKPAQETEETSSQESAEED
- testName: Isothermal titration calorimetry (ITC), titration into HMGA2
- Type: binding, mammalian
- testSettings: number of sites, first type
measuredProperty: HMGA2 Binding site

molecule: O=C(Nc1cc(C(=O)Nc2ccc(S(=O)(=O)O)cc2S(=O)(=O)O)cc(C(=O)Nc2ccc(S(=O)(=O)O)cc2S(=O)(=O)O)c1)Nc1cc(C(=O)Nc2ccc(S(=O)(=O)O)cc2S(=O)(=O)O)cc(C(=O)Nc2ccc(S(=O)(=O)O)cc2S(=O)(=O)O)c1 [NF449]
measuredProperty: HMGA2 Binding site
result: 0.89

molecule: Cc1ccc(C(=O)Nc2ccc(S(=O)(=O)O)c3cc(S(=O)(=O)O)cc(S(=O)(=O)O)c23)cc1NC(=O)c1cccc(NC(=O)Nc2cccc(C(=O)Nc3cc(C(=O)Nc4ccc(S(=O)(=O)O)c5cc(S(=O)(=O)O)cc(S(=O)(=O)O)c45)ccc3C)c2)c1 [suramin]
measuredProperty: HMGA2 Binding site
result: three

molecule: O=C(Nc1cc(C(=O)Nc2ccc(S(=O)(=O)O)cc2)cc(C(=O)Nc2ccc(S(=O)(=O)O)cc2)c1)Nc1cc(C(=O)Nc2ccc(S(=O)(=O)O)cc2)cc(C(=O)Nc2ccc(S(=O)(=O)O)cc2)c1 [NF110]
measuredProperty: HMGA2 Binding site
result: 2.06

molecule: O=C(Nc1cccc(C(=O)Nc2ccc(S(=O)(=O)O)c3cc(S(=O)(=O)O)cc(S(=O)(=O)O)c23)c1)Nc1cccc(C(=O)Nc2ccc(S(=O)(=O)O)c3cc(S(=O)(=O)O)cc(S(=O)(=O)O)c23)c1 [NF023]
measuredProperty: HMGA2 Binding site
result: 1.74

---

Readings of pIC50 for the listed compounds
- targetOfAssay: HMGA2-DNA interactions (Mus musculus)
- Construct: made in house
- testName: Protein-DNA interaction ELISA (PDI-ELISA) assay
- Format: binding, mammalian
- testSettings: inhibition of HMGA2-DNA interactions, PDI-ELISA
pIC50: −log10 of the molar value.

cpdSmiles: O=C(Nc1cc(C(=O)Nc2ccc(S(=O)(=O)O)cc2S(=O)(=O)O)cc(C(=O)Nc2ccc(S(=O)(=O)O)cc2S(=O)(=O)O)c1)Nc1cc(C(=O)Nc2ccc(S(=O)(=O)O)cc2S(=O)(=O)O)cc(C(=O)Nc2ccc(S(=O)(=O)O)cc2S(=O)(=O)O)c1
targetOfAssay: HMGA2-DNA interactions (Mus musculus)
pIC50: 6.37

cpdSmiles: O=C(Nc1cc(C(=O)Nc2ccc(S(=O)(=O)O)cc2)cc(C(=O)Nc2ccc(S(=O)(=O)O)cc2)c1)Nc1cc(C(=O)Nc2ccc(S(=O)(=O)O)cc2)cc(C(=O)Nc2ccc(S(=O)(=O)O)cc2)c1
targetOfAssay: HMGA2-DNA interactions (Mus musculus)
pIC50: 6.06

cpdSmiles: Cc1ccc(C(=O)Nc2ccc(S(=O)(=O)O)c3cc(S(=O)(=O)O)cc(S(=O)(=O)O)c23)cc1NC(=O)c1cccc(NC(=O)Nc2cccc(C(=O)Nc3cc(C(=O)Nc4ccc(S(=O)(=O)O)c5cc(S(=O)(=O)O)cc(S(=O)(=O)O)c45)ccc3C)c2)c1
targetOfAssay: HMGA2-DNA interactions (Mus musculus)
pIC50: 5.56

cpdSmiles: O=C(Nc1cccc(C(=O)Nc2ccc(S(=O)(=O)O)c3cc(S(=O)(=O)O)cc(S(=O)(=O)O)c23)c1)Nc1cccc(C(=O)Nc2ccc(S(=O)(=O)O)c3cc(S(=O)(=O)O)cc(S(=O)(=O)O)c23)c1
targetOfAssay: HMGA2-DNA interactions (Mus musculus)
pIC50: 4.97

---

- targetOfAssay: “AT-hook” peptide 3 (ATHP3) (Homo sapiens, UniProt P52926)
- testName: Isothermal titration calorimetry (ITC), titration into ATHP3
- Type: binding
- testSettings: number of sites, first line

cpdSmiles: O=C(Nc1cccc(C(=O)Nc2ccc(S(=O)(=O)O)c3cc(S(=O)(=O)O)cc(S(=O)(=O)O)c23)c1)Nc1cccc(C(=O)Nc2ccc(S(=O)(=O)O)c3cc(S(=O)(=O)O)cc(S(=O)(=O)O)c23)c1
ATHP3 Binding site: 1

cpdSmiles: O=C(Nc1cc(C(=O)Nc2ccc(S(=O)(=O)O)cc2S(=O)(=O)O)cc(C(=O)Nc2ccc(S(=O)(=O)O)cc2S(=O)(=O)O)c1)Nc1cc(C(=O)Nc2ccc(S(=O)(=O)O)cc2S(=O)(=O)O)cc(C(=O)Nc2ccc(S(=O)(=O)O)cc2S(=O)(=O)O)c1
ATHP3 Binding site: 0.86

cpdSmiles: O=C(Nc1cc(C(=O)Nc2ccc(S(=O)(=O)O)cc2)cc(C(=O)Nc2ccc(S(=O)(=O)O)cc2)c1)Nc1cc(C(=O)Nc2ccc(S(=O)(=O)O)cc2)cc(C(=O)Nc2ccc(S(=O)(=O)O)cc2)c1
ATHP3 Binding site: 1.01

cpdSmiles: Cc1ccc(C(=O)Nc2ccc(S(=O)(=O)O)c3cc(S(=O)(=O)O)cc(S(=O)(=O)O)c23)cc1NC(=O)c1cccc(NC(=O)Nc2cccc(C(=O)Nc3cc(C(=O)Nc4ccc(S(=O)(=O)O)c5cc(S(=O)(=O)O)cc(S(=O)(=O)O)c45)ccc3C)c2)c1
ATHP3 Binding site: 0.98

---

- targetOfAssay: HMGA2-DNA interactions (Mus musculus)
- Construct: made in house
- testName: AlphaScreen primary uHTS assay of His-tagged HMGA2 binding to biotin-labeled DNA oligomer FL814
- Parameters: species or system mammalian
- testSettings: LOPAC1280 screen, final concentration of 5 µM
Reported inhibition at 5 µM values for a set of compounds

cpdSmiles: C=C1C[C@@]23CC[C@H]4[C@@](C)(CCC[C@@]4(C)C(=O)O)[C@@H]2CC[C@]1(O)C3
inhibition at 5 µM: ≥ 50%

cpdSmiles: N#CC(C#N)=C(N)/C(C#N)=C/c1cc(O)c(O)c(O)c1
inhibition at 5 µM: ≥ 50%

cpdSmiles: O=C1c2c(O)ccc(O)c2C(=O)c2c(NCCNCCO)ccc(NCCNCCO)c21
inhibition at 5 µM: ≥ 50%

cpdSmiles: Cc1ccc(C(=O)Nc2ccc(S(=O)(=O)O)c3cc(S(=O)(=O)O)cc(S(=O)(=O)O)c23)cc1NC(=O)c1cccc(NC(=O)Nc2cccc(C(=O)Nc3cc(C(=O)Nc4ccc(S(=O)(=O)O)c5cc(S(=O)(=O)O)cc(S(=O)(=O)O)c45)ccc3C)c2)c1
inhibition at 5 µM: ≥ 50%

cpdSmiles: O=C(O)C1=CC(=C(c2ccc(O)c(C(=O)O)c2)c2ccc(O)c(C(=O)O)c2)C=CC1=O
inhibition at 5 µM: ≥ 50%
